Data credit: paper PMC11249646

- TARGET SYSTEM: CIB1 and αIIb interaction (CIB1-GST : F-αIIb peptide) (Homo sapiens, UniProt Q99828)
- Construct: made in house; host or cells: BL-21 plus RIL cells (E. coli)
- ASSAY DETAILS: FP assay, 1536-well qHTS format (primary and confirmatory screen)
- Type: binding
- ASSAY CONDITIONS: confirmatory screen, YES/NO call
PROPERTY LABEL: CONFIRMATORY SCREEN Confirm?

> print(dat)
                                   molecule                             target.system                property.label  reported
1  S=C(SSC(=S)N1CCCCC1)N1CCCCC1 [NCGC00181776-02, dipentamethylenethiuram disulfide]  CIB1 and αIIb interaction (CIB1-GST : F-αIIb peptide) (Homo sapiens, UniProt Q99828)  CONFIRMATORY SCREEN Confirm?       YES
2  O=C(O)C(F)(F)F.O=C(O)c1ccc(-c2ccc3ncnc(NCc4nccs4)c3c2)o1  CIB1 and αIIb interaction (CIB1-GST : F-αIIb peptide) (Homo sapiens, UniProt Q99828)  CONFIRMATORY SCREEN Confirm?       YES
3  O=C1C(I)=CC(=C(c2cc(I)c([O-])c(I)c2)c2ccccc2C(=O)[O-])C=C1I.[Na+].[Na+]  CIB1 and αIIb interaction (CIB1-GST : F-αIIb peptide) (Homo sapiens, UniProt Q99828)  CONFIRMATORY SCREEN Confirm?       YES
4  COc1ccc2c(c1)C=C1Cn3c-2c(C2CCCCC2)c2ccc(cc23)C(=O)NS(=O)(=O)N(C)CCOCCN(C)C1=O  CIB1 and αIIb interaction (CIB1-GST : F-αIIb peptide) (Homo sapiens, UniProt Q99828)  CONFIRMATORY SCREEN Confirm?       YES
5  O=C(O)C(F)(F)F.O=c1c2ccccc2nc2sc(NS(=O)(=O)c3ccc4c(c3)CCC4)nn12  CIB1 and αIIb interaction (CIB1-GST : F-αIIb peptide) (Homo sapiens, UniProt Q99828)  CONFIRMATORY SCREEN Confirm?       YES
6  Cc1ccc(S(=O)(=O)Nc2cnccc2C(=O)Nc2nc(-c3cccc(C)c3)cs2)cc1.O=C(O)C(F)(F)F  CIB1 and αIIb interaction (CIB1-GST : F-αIIb peptide) (Homo sapiens, UniProt Q99828)  CONFIRMATORY SCREEN Confirm?       YES
7  NS(=O)(=O)c1ccc(Cc2c(-c3cccc(-c4ccccc4F)c3)nn(-c3nc(C(=O)O)cs3)c2O)cc1.O=C(O)C(F)(F)F  CIB1 and αIIb interaction (CIB1-GST : F-αIIb peptide) (Homo sapiens, UniProt Q99828)  CONFIRMATORY SCREEN Confirm?       YES

====

- TARGET SYSTEM: CIB1 and αIIb interaction (CIB1-GST : F-αIIb peptide) (Homo sapiens, UniProt Q99828)
- Construct: made in house; host or cells: BL-21 plus RIL cells (E. coli)
- Sequence (Q99828 1-191): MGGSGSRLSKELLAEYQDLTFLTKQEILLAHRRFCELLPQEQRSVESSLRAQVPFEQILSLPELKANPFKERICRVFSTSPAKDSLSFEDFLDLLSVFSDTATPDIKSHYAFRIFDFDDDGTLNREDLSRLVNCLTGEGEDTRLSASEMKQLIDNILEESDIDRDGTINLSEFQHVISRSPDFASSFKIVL
- ASSAY DETAILS: FP assay, 1536-well qHTS format (primary and confirmatory screen)
- Format: binding
- ASSAY CONDITIONS: qHTS primary screen hits, Table S2; read-out: IC50
API: label(entry) gives satisfied if the entry's IC50 is strictly smaller than 80 µM; on equality or larger values it gives not satisfied.

> print(dat)
                                   compound   answer.label
1  Cn1cnc2c1c(=O)[nH]c(=O)n2C [NCGC00016023-18]  not satisfied
2  Cc1nc(C(=O)NCC(=O)O)c(O)c2ccc(Oc3ccccc3)cc12 [NCGC00346527-01]      satisfied
3  NC(=O)c1ccc(Cc2c(-c3cccc(-c4ccccc4)c3)nn(-c3nc(C(=O)O)cs3)c2O)cc1.O=C(O)C(F)(F)F [NCGC00356638-01]      satisfied
4  CSC(Cc1ccc(Cl)cc1)C(=O)Nc1ccc(Cl)cc1C(=O)O.O=C(O)C(F)(F)F (centres unmarked) [NCGC00189231-01]      satisfied
5              Nc1ccccc1N [NCGC00090885-03]  not satisfied
6  CC(C)(C)CNc1ncnc2ccc(-c3ccc(CO)o3)cc12.O=C(O)C(F)(F)F [NCGC00238375-01]      satisfied

====

Items are presented alongside their recorded Curve Class.
- TARGET SYSTEM: CIB1 and αIIb interaction (CIB1-GST : F-αIIb peptide) (Homo sapiens)
- Construct: made in house; host or cells: BL-21 plus RIL cells (E. coli)
- ASSAY DETAILS: FP assay, 1536-well qHTS format (primary and confirmatory screen)
- Assay type: binding
- ASSAY CONDITIONS: qHTS primary screen hits, Table S2; negative sign = inhibitory curve; several classes where COUNT > 1
PROPERTY LABEL: Curve Class

> print(dat)
                              record.smiles  property.label  reported
1  Cc1c2c(=O)n(-c3ccccc3)[nH]c2cc(=O)n1Cc1ccncc1.O=C(O)C(F)(F)F     Curve Class      -2.4
2  CC1(C)OB(c2ccc(O)c3ncc(N4CCNCC4)cc23)OC1(C)C.O=C(O)C(F)(F)F     Curve Class      -2.2
3  Cc1ccc(S(=O)(=O)Nc2nn3c(=O)c4ccccc4nc3s2)cc1C.O=C(O)C(F)(F)F     Curve Class      -1.4
4  COc1ccccc1-c1cccc(-c2c(O)c3cc(C#N)c(Cl)cc3[nH]c2=O)c1     Curve Class      -2.4

====

This listing pairs compounds with measured pIC50.
- TARGET SYSTEM: CIB1 and αIIb interaction (CIB1-GST : F-αIIb peptide) (Homo sapiens)
- Construct: made in house; host or cells: BL-21 plus RIL cells (E. coli)
- ASSAY DETAILS: FP assay, 1536-well qHTS format (primary and confirmatory screen)
- Type: binding
- ASSAY CONDITIONS: qHTS FP screen hits, Table S2; read-out: IC50
pIC50: −log10 of the molar value.
PROPERTY LABEL: pIC50

> print(dat)
                                    compound                             target.system  reported
 1  Cc1c(Cc2ccc3ccccc3n2)c2cc(F)ccc2n1CC(=O)O  CIB1 and αIIb interaction (CIB1-GST : F-αIIb peptide) (Homo sapiens)      4.35
 2   Cc1coc2c1C(=O)C(=O)c1c-2ccc2c1CCCC2(C)C  CIB1 and αIIb interaction (CIB1-GST : F-αIIb peptide) (Homo sapiens)      4.10
 3  N#Cc1ccc(NS(=O)(=O)c2ccc(NC(=O)Cc3ccc(Cl)c(Cl)c3)cc2)cc1.O=C(O)C(F)(F)F  CIB1 and αIIb interaction (CIB1-GST : F-αIIb peptide) (Homo sapiens)      5.46
 4     CCc1oc2ccccc2c1C(=O)c1cc(I)c(O)c(I)c1  CIB1 and αIIb interaction (CIB1-GST : F-αIIb peptide) (Homo sapiens)      4.40
 5  CCOC(=O)c1c(NC(=O)C2CC(Cl)=CCC2C(=O)O)sc2c1CCCCC2.O=C(O)C(F)(F)F (stereo not shown)  CIB1 and αIIb interaction (CIB1-GST : F-αIIb peptide) (Homo sapiens)      4.45
 6  CC(O)c1ccc(-c2ccc3ncnc(N4CCOCC4)c3c2)o1.O=C(O)C(F)(F)F (stereo not shown)  CIB1 and αIIb interaction (CIB1-GST : F-αIIb peptide) (Homo sapiens)      4.85
 7  Nc1c(Cc2ccc(S(N)(=O)=O)cc2)c(-c2cccc(-c3ccccc3)c2)nn1-c1nc(C(=O)O)cs1.O=C(O)C(F)(F)F  CIB1 and αIIb interaction (CIB1-GST : F-αIIb peptide) (Homo sapiens)      4.55
 8  CC1=C(C(=O)Nc2cccc(C(=O)O)c2)C(c2ccccc2Cl)N=C(Nc2nc3ccccc3o2)N1.O=C(O)C(F)(F)F (stereo not shown)  CIB1 and αIIb interaction (CIB1-GST : F-αIIb peptide) (Homo sapiens)      4.40
 9  O=C(O)C(F)(F)F.O=C1Nc2ccccc2/C1=N/NC(=S)Nc1ccc(C(=O)O)cc1  CIB1 and αIIb interaction (CIB1-GST : F-αIIb peptide) (Homo sapiens)      5.05
10  CCCCCCCCn1cc(CC(N)=O)c2cc(-c3cccc(C)c3)ccc21.O=C(O)C(F)(F)F  CIB1 and αIIb interaction (CIB1-GST : F-αIIb peptide) (Homo sapiens)      4.30
11  CS(=O)(=O)c1ccc(C(=O)OCC(=O)N2CCC(Cc3ccccc3)CC2)cc1[N+](=O)[O-]  CIB1 and αIIb interaction (CIB1-GST : F-αIIb peptide) (Homo sapiens)      6.15
12  CC[C@@H](CO)NC(=O)[C@@H]1C=C2c3cccc4c3c(cn4C)C[C@H]2N(C)C1  CIB1 and αIIb interaction (CIB1-GST : F-αIIb peptide) (Homo sapiens)      4.35
13  CC(=O)O.Cc1cc2c(C(C)C)c(O)c(O)c(C=O)c2c(O)c1-c1c(C)cc2c(C(C)C)c(O)c(O)c(C=O)c2c1O  CIB1 and αIIb interaction (CIB1-GST : F-αIIb peptide) (Homo sapiens)      4.53
14  CC(C)C(=O)OCc1ccc(-c2nn(Cc3ccccc3)c3ccccc23)o1  CIB1 and αIIb interaction (CIB1-GST : F-αIIb peptide) (Homo sapiens)      4.60
15  O=C(O)C(F)(F)F.O=C1Nc2ccccc2/C1=N/NC(=S)Nc1ccc(O)cc1  CIB1 and αIIb interaction (CIB1-GST : F-αIIb peptide) (Homo sapiens)      5.05
16  CCC(=O)NC(c1cccs1)c1cc([N+](=O)[O-])c2cccnc2c1O (stereo not shown)  CIB1 and αIIb interaction (CIB1-GST : F-αIIb peptide) (Homo sapiens)      4.33
17  COc1ccc2[nH]c([S+]([O-])Cc3ncc(C)c(OC)c3C)nc2n1 (stereo not shown)  CIB1 and αIIb interaction (CIB1-GST : F-αIIb peptide) (Homo sapiens)      4.32
18  CCOC(=O)c1cc(-c2ccco2)nc2c1c(C)nn2CCC#N.O=C(O)C(F)(F)F  CIB1 and αIIb interaction (CIB1-GST : F-αIIb peptide) (Homo sapiens)      4.40
19            O=C1c2ccccc2C(=O)c2c1ccc(O)c2O  CIB1 and αIIb interaction (CIB1-GST : F-αIIb peptide) (Homo sapiens)      4.45
20  CCOC(=O)CC(SP(=S)(OC)OC)C(=O)OCC (stereo not shown)  CIB1 and αIIb interaction (CIB1-GST : F-αIIb peptide) (Homo sapiens)      3.92
21  N#Cc1ccc(NS(=O)(=O)c2ccc(Nc3nc(-c4ccccc4)cs3)cc2)cc1.O=C(O)C(F)(F)F  CIB1 and αIIb interaction (CIB1-GST : F-αIIb peptide) (Homo sapiens)      4.15
22  COc1ccc(S(=O)(=O)Nc2cnccc2C(=O)Nc2nc(-c3ccccc3)cs2)cc1.O=C(O)C(F)(F)F  CIB1 and αIIb interaction (CIB1-GST : F-αIIb peptide) (Homo sapiens)      4.40
23  Cc1cc(=O)oc2cc(SC3=NS(=O)(=O)c4ccccc43)ccc12  CIB1 and αIIb interaction (CIB1-GST : F-αIIb peptide) (Homo sapiens)      4.40
24  COC[C@H]1OC(=O)c2coc3c2[C@@]1(C)C1=C(C3=O)C2CCC(=O)[C@@]2(C)C[C@H]1OC(C)=O (stereo partly shown)  CIB1 and αIIb interaction (CIB1-GST : F-αIIb peptide) (Homo sapiens)      4.53
25  CCOC(=O)C1CCN(C(=O)C(C)(C)NC(=O)Nc2ccc(C#N)cc2)CC1.O=C(O)C(F)(F)F  CIB1 and αIIb interaction (CIB1-GST : F-αIIb peptide) (Homo sapiens)      5.66
26  Cl.N=C(NCCCCCCNC(=N)NC(=N)Nc1ccc(Cl)cc1)NC(=N)Nc1ccc(Cl)cc1  CIB1 and αIIb interaction (CIB1-GST : F-αIIb peptide) (Homo sapiens)      4.30
27  C=C1C(=O)O[C@@H]2[C@H]3C(C)=CC(=O)C3=C(C)[C@@H](OC(=O)/C(C)=C\C)[C@H](O)[C@@H]12  CIB1 and αIIb interaction (CIB1-GST : F-αIIb peptide) (Homo sapiens)      5.46
28  CN1CCCN(C(=O)c2cccc(-c3ccc(/C=C4/C(=O)Nc5ccc(Cl)cc54)o3)c2)CC1  CIB1 and αIIb interaction (CIB1-GST : F-αIIb peptide) (Homo sapiens)      4.82
29  COc1nc2ccc(Br)cc2cc1[C@@H](c1ccccc1)[C@@](O)(CCN(C)C)c1cccc2ccccc12  CIB1 and αIIb interaction (CIB1-GST : F-αIIb peptide) (Homo sapiens)      4.30
30  COc1cccc(CN(C)c2ccc(S(=O)(=O)Nc3nccs3)cc2)c1O.O=C(O)C(F)(F)F  CIB1 and αIIb interaction (CIB1-GST : F-αIIb peptide) (Homo sapiens)      4.75
31  CC(=O)c1c(O)cc2cccc3c2c1CC(C)(O)O3 (stereo not shown)  CIB1 and αIIb interaction (CIB1-GST : F-αIIb peptide) (Homo sapiens)      4.30
